Origin of the recorded values: patent US20130225434A1

molecular target: T1, Rad9-pT peptide with SGS linker (SGS-SLEVpTEADATFYAKK) (yeast, SMILES …); test: phage ELISA on immobilized Rad9-pT, phage normalised to the Flag epitope; anti-M13-HRP, A405
T1 construct: also called cognate pT peptide; Rad-pT
T1 peptide: Biotin-SGSSLEV[pT]EADATFYAKK-NH2
Square brackets hold non-standard residues; d marks the D form. * marks the point of attachment. Biotin = O=C1N[C@H]2[C@H](CS[C@H]2CCCCC(=O)*)N1; pT = C[C@@H](OP(=O)(O)O)[C@H](N)C(=O)O
reportedMetric: binding result

>  <binder>
R (designed binder, also called S34R) FHA1 domain displayed on M13 protein III: MENITQPTQQSTQATQRFLIEKFSQEQIGENIVRRVISTTGQIPIRDLSADISQVLKEKRSIKKVWTFGRNPACDYHLGNISRLSNKHFQILLGEDGNLLLNDISTNGTWLNGQKVEKNSNQLLSQGDEITVGVGVESDILSLVIFINDKFKQSLEQNKVDRIRSNLKNT

>  <reportedMetric>
binding result

>  <result>
no binding

$$$$
>  <binder>
G (designed binder, also called S34G) FHA1 domain displayed on M13 protein III: MENITQPTQQSTQATQRFLIEKFSQEQIGENIVGRVISTTGQIPIRDLSADISQVLKEKRSIKKVWTFGRNPACDYHLGNISRLSNKHFQILLGEDGNLLLNDISTNGTWLNGQKVEKNSNQLLSQGDEITVGVGVESDILSLVIFINDKFKQSLEQNKVDRIRSNLKNT

>  <reportedMetric>
binding result

>  <result>
no binding

$$$$
>  <binder>
H (designed binder, also called S34H) FHA1 domain displayed on M13 protein III: MENITQPTQQSTQATQRFLIEKFSQEQIGENIVHRVISTTGQIPIRDLSADISQVLKEKRSIKKVWTFGRNPACDYHLGNISRLSNKHFQILLGEDGNLLLNDISTNGTWLNGQKVEKNSNQLLSQGDEITVGVGVESDILSLVIFINDKFKQSLEQNKVDRIRSNLKNT

>  <reportedMetric>
binding result

>  <result>
no binding

$$$$
